meta.source: patent US20140350081A1

- TARGET_OR_SYSTEM: AaDOP2 (Aedes aegypti, UniProt H6D5H2)
- Sequence (H6D5H2 entry or part of it): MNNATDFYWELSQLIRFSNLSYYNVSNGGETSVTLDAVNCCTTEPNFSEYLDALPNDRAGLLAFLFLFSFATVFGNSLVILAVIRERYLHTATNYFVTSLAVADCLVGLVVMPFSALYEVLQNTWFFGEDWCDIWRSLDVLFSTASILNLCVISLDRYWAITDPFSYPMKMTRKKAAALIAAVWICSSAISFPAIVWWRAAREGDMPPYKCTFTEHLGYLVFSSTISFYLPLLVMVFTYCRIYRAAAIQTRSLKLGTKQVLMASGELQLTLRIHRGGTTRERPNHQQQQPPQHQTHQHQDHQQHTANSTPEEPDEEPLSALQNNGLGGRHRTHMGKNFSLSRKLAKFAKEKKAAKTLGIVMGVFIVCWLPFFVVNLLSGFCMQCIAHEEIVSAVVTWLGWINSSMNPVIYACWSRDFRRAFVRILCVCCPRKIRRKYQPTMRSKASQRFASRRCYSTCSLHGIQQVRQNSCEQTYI
- EXPERIMENTAL_CONDITIONS: read-out: Affinity (Aedesdop2); values equal the Table 3 IC50 values
# key: entry, value: IC50

| COMPOUND | TARGET_OR_SYSTEM | IC50 [µM] |
| --- | --- | --- |
| CN(C)CCC=C1c2ccccc2CCc2ccccc21 [Amitriptyline] | AaDOP2 (Aedes aegypti, UniProt H6D5H2) | 0.014 |
| OCCN1CCN(CC/C=C2/c3ccccc3Sc3ccc(C(F)(F)F)cc32)CC1 [cis-(Z)-Flupenthixol] | AaDOP2 (Aedes aegypti, UniProt H6D5H2) | 0.02 |

----------
- TARGET_OR_SYSTEM: AaDOP2 (Aedes aegypti, UniProt H6D5H2)
- PROTOCOL_NOTES: AaDOP2 agonist screen against the LOPAC1280 library
- Format: cell-based
- EXPERIMENTAL_CONDITIONS: 10 μM compound; percent of response to 1 μM dihydrexidine
Ranges used to classify % of DHX: small value (below 40%), mid value (40% to below 90%), large value (90% or more)

| COMPOUND | LABEL_CLASS |
| --- | --- |
| CC1=C[C@@H]2c3cccc4[nH]cc(c34)C[C@H]2N(C)C1 | large value |
| Br.Cc1cccc(C2CN(C)CCc3c2cc(O)c(O)c3Cl)c1 (centres unmarked) | small value |
| C=CCN1CCc2cccc3c2[C@H]1Cc1ccc(O)c(O)c1-3 [R(−)-N-Allyl-NPA] | mid value |
| CNCCc1ccc(O)c(O)c1 | large value |
| C=C[C@@]1(C)CC(=O)[C@]2(O)[C@@]3(C)[C@@H](O)CCC(C)(C)[C@@H]3[C@H](O)[C@H](OC(C)=O)[C@@]2(C)O1 | small value |
| NC[C@H](O)c1ccc(O)c(O)c1 [Norepinephrine] | mid value |
| CCCN1CCc2cccc3c2[C@H]1Cc1ccc(O)c(O)c1-3 [R(−)-Propyl-NPA] | mid value |
| Oc1cc2c(cc1O)[C@H]1c3ccccc3CN[C@@H]1CC2 (racemic) [Dihydrexidine] | large value |
| CCCN(CCC)CCc1ccc(O)c(O)c1 | small value |
| Nn1nnc2ccccc21 | mid value |
| Oc1cc2c(cc1O)C(c1ccccc1)CNCC2 (centres unmarked) | small value |
| CCNC(=O)[C@H]1O[C@@H](n2cnc3c(NCc4ccccc4)ncnc32)[C@@H](O)C1O (some centres unmarked) | small value |
| Nc1ncnc2c1ncn2[C@@H]1O[C@H](C(=O)NC2CC2)[C@@H](O)[C@H]1O | small value |
| Oc1ccc(C2CNCCc3c2cc(O)c(O)c3Cl)cc1 (centres unmarked) | small value |
| C[C@H]1C[C@H]2[C@@H]3CCC4=CC(=O)C=C[C@]4(C)[C@@]3(F)[C@@H](O)C[C@]2(C)[C@@]1(O)C(=O)CO | large value |
| C=CCN1CCc2c(cc(O)c(O)c2Cl)C(c2ccccc2)C1 (racemic) [(±)-Chloro-APB] | large value |
| Br.Oc1ccc(C2CNCc3sccc32)cc1O (centres unmarked) | large value |
| Oc1cc2c(c(Cl)c1O)CCNCC2c1ccccc1 (centres unmarked) | small value |
| NC1CCc2cc(O)c(O)cc2C1 (centres unmarked) | large value |
| CC[C@@H](CO)NC(=O)[C@@H]1C=C2c3cccc4[nH]cc(c34)C[C@H]2N(C)C1 | mid value |
| CCCCCCCC/C=C\CCCCCCCC(=O)NCCc1ccc(O)c(O)c1 | small value |
| CCN(c1nc(N)c(C(=O)NC(=N)N)nc1Cl)C(C)C | mid value |

----------
- TARGET_OR_SYSTEM: human D1 dopamine receptor (hD1) (Homo sapiens, UniProt P21728)
- Construct: expressed in transfected cells
- Sequence (P21728 whole entry): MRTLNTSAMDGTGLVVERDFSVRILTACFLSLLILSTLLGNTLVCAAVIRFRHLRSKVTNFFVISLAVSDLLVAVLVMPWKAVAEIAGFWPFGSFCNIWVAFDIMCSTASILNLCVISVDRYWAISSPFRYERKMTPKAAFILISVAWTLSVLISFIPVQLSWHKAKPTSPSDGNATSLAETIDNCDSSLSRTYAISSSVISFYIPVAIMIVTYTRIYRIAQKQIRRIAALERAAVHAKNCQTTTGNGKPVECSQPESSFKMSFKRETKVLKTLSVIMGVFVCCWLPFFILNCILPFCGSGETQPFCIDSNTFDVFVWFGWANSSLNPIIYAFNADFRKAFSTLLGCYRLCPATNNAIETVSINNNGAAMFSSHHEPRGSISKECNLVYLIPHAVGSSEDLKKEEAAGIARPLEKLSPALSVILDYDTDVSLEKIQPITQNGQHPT
- PROTOCOL_NOTES: cAMP accumulation secondary assay, hD1-expressing cells
- Format: cell-based, H. sapiens
pIC50: −log10 of the molar value.
READOUT_LABEL: pIC50

| COMPOUND | TARGET_OR_SYSTEM | QUANTITATIVE_RESULT |
| --- | --- | --- |
| CSc1ccc2c(c1)C(N1CCN(C)CC1)Cc1ccccc1S2 (stereo not shown) [Methiothepin] | human D1 dopamine receptor (hD1) (Homo sapiens, UniProt P21728) | 7.10 |

----------
- System: Ae. aegypti L3 larvae
- PROTOCOL_NOTES: whole plant or invertebrate
- EXPERIMENTAL_CONDITIONS: Aedes aegypti, 48 h, read-out: Toxicity to Aedes aegypti larvae (mortality) 48 hours, 400 μM, L3 larvae, three independent experiments

| COMPOUND | mortality at 400 µM |
| --- | --- |
| COCCCC/C(=N\OCCN)c1ccc(C(F)(F)F)cc1 [Fluvoxamine] | 33% |
| CCNC(=O)N1CCN(CCCC(c2ccc(F)cc2)c2ccc(F)cc2)CC1 [Amperozide] | 93% |
| CC1(C)C(=O)N(CCN2CCC(C(=O)c3ccc(F)cc3)CC2)c2ccccc21.Cl [LY310762] | 3% |
| COc1ccc(C(CN(C)C)C2(O)CCCCC2)cc1 (stereo not drawn) [Venlafaxine] | 7% |
| CN1CC2c3ccccc3Oc3ccc(Cl)cc3C2C1 (stereo not drawn) [Asenapine] | 100% |
| CNCC[C@@H](Oc1ccccc1C)c1ccccc1 [Atomoxetine] | 30% |
| CN1CCN(C2=Nc3ccccc3Oc3ccc(Cl)cc32)CC1 [Loxapine] | 100% |
| CN(C)CCC=C1c2ccccc2CCc2ccccc21 [Amitriptyline] | 87% |
| OCCN1CCN(CC/C=C2/c3ccccc3Sc3ccc(C(F)(F)F)cc32)CC1 [cis-(Z)-Flupenthixol] | 100% |
| CSc1ccc2c(c1)C(N1CCN(C)CC1)Cc1ccccc1S2 (stereo not drawn) [Methiothepin] | 100% |
| CN(C)CCCN1c2ccccc2CCc2ccc(Cl)cc21 [Clomipramine] | 93% |
| CNCCCN1c2ccccc2CCc2ccccc21 [Desipramine] | 40% |
| CN1CCN(CC(=O)N2c3ccccc3C(=O)Nc3cccnc32)CC1 [Pirenzepine] | 0% |
| CN1C2CCC1CC(OC(c1ccccc1)c1ccccc1)C2 (stereo not drawn) [Benztropine] | 100% |
| CN(C)CCCN1c2ccccc2Sc2ccc(Cl)cc21 [Chlorpromazine] | 100% |
| CNCCC(Oc1ccc(C(F)(F)F)cc1)c1ccccc1 (stereo not drawn) [Fluoxetine] | 53% |
| O=C(c1ccc(F)cc1)C1CCN(CCn2c(=O)[nH]c3ccccc3c2=O)CC1 [Ketanserin] | 0% |
| CN1CCc2cc(Cl)c(O)cc2C(c2ccccc2)C1 (stereo not drawn) [SCH23390] | 23% |

----------
- TARGET_OR_SYSTEM: Isdop1 (Ixodes scapularis)
- PROTOCOL_NOTES: cAMP accumulation confirmation assay, cells stably expressing Isdop1
pIC50: −log10 of the molar value.
READOUT_LABEL: pIC50

| COMPOUND | QUANTITATIVE_RESULT |
| --- | --- |
| CC(C)(C)[C@]1(O)CCN2CC3c4ccccc4CCc4cccc(c43)[C@@H]2C1 (single isomer, unassigned; (+)) [(+)-Butaclamol] | 5.46 |
| CSc1ccc2c(c1)C(N1CCN(C)CC1)Cc1ccccc1S2 (centres unmarked) [Methiothepin] | 6.02 |
| OCCN1CCN(CC/C=C2/c3ccccc3Sc3ccc(C(F)(F)F)cc32)CC1 [cis-(Z)-Flupenthixol] | 5.43 |
| CN(C)CCC=C1c2ccccc2CCc2ccccc21 | 4.11 |
| CN1CCc2cc(Cl)c(O)cc2C(c2ccccc2)C1 (centres unmarked) | 7.24 |

----------
- TARGET_OR_SYSTEM: AaDOP2 (Aedes aegypti, UniProt H6D5H2)
- PROTOCOL_NOTES: HTRF cAMP accumulation concentration response assay (Cisbio Dynamic 2)
- Format: cell-based
- EXPERIMENTAL_CONDITIONS: in vitro Concentration Response Curve assay, n = 2, relative to control antagonist Amitriptyline; read-out: Avg IC50
# key: entry, value: IC50

| MOLECULE | TARGET_OR_SYSTEM | IC50 (µM) |
| --- | --- | --- |
| CC(COc1ccccc1Cc1ccccc1)N1CCCCC1 (racemic) [Benproperine phosphate] | AaDOP2 (Aedes aegypti, UniProt H6D5H2) | 4.51 |
| COc1cc(OC)cc(C(=O)Nc2ccc(Nc3nc(C)cc(Nc4ccccc4)n3)cc2)c1 | AaDOP2 (Aedes aegypti, UniProt H6D5H2) | 2.22 |
| Cc1cc(Nc2ccccc2)nc(Nc2ccc(NC(=O)C(C)(C)C)cc2)n1 | AaDOP2 (Aedes aegypti, UniProt H6D5H2) | 2.08 |
| CN1CCN(c2nc(Nc3ccc(Cl)cc3)c3cnn(-c4ccccc4)c3n2)CC1 | AaDOP2 (Aedes aegypti, UniProt H6D5H2) | 3.98 |

----------
# key: entry, value: % Mortality 120 hrs
- Test system: adult male Blatella germanica
- PROTOCOL_NOTES: Cockroach assay of Table 16 (title contact assay, text feeding assay)
- Type: in vivo
- EXPERIMENTAL_CONDITIONS: 200 mM compound

| COMPOUND | % Mortality 120 hrs |
| --- | --- |
| CN1CC2c3ccccc3Oc3ccc(Cl)cc3C2C1 (stereo not drawn) [Asenapine] | 27% |
| CN(C)CCCN1c2ccccc2Sc2ccc(Cl)cc21 [Chlorpromazine] | 20% |
| CCNC(=O)N1CCN(CCCC(c2ccc(F)cc2)c2ccc(F)cc2)CC1 [Amperozide] | 7% |
| OCCN1CCN(CC/C=C2/c3ccccc3Sc3ccc(C(F)(F)F)cc32)CC1 [cis-(Z)-Flupenthixol] | 20% |
| CN(C)CCC=C1c2ccccc2CCc2ccccc21 [Amitriptyline] | 30% |
| COC(=O)N(C(=O)N1CO[C@@]2(C(=O)OC)Cc3cc(Cl)ccc3C2=N1)c1ccc(OC(F)(F)F)cc1 [Indoxacarb] | 100% |
